testDescription: Intrinsic clearance in mouse liver microsomes at 0.5 uM after 30 mins in presence of NADPH by LC-MS/MS analysis
Assay type: ADME, Microsome
assaySetup: 0.5 h

compound	measureUnit	CLH
CC1(c2ccc(N3CCOC3=O)cc2)NC(=O)N(CC(=O)c2ccc(F)cc2F)C1=O (configuration not stated)	mL/min/g	3.54
CC1(c2ccc(S(C)(=O)=O)cc2)NC(=O)N(CC(=O)c2ccc(F)cc2F)C1=O (configuration not stated)	mL/min/g	2.5
CC1(c2ccc(C#N)cc2)NC(=O)N(CC(=O)c2ccc(F)cc2F)C1=O (configuration not stated)	mL/min/g	3.52
CC1(c2ccc(OC(F)F)cc2)NC(=O)N(CC(=O)c2ccc(F)cc2F)C1=O (configuration not stated)	mL/min/g	1.78
CC1(c2ccc(-n3cnnn3)cc2)NC(=O)N(CC(=O)c2ccc(F)cc2F)C1=O (configuration not stated)	mL/min/g	2.44
CC1(c2ccc(NS(C)(=O)=O)cc2)NC(=O)N(CC(=O)c2ccc(F)cc2F)C1=O (configuration not stated)	mL/min/g	3.29
CC1(c2ccc(Br)cc2)NC(=O)N(CC(=O)c2ccc(F)cc2F)C1=O (configuration not stated)	mL/min/g	1.48

###

testDescription: physchem
assaySetup: buffer, pH 7.4, logD
Label scheme for chromatographic logD: lower than 5 is label 0, 5 and above is label 1.

molecule	cat
COc1ccc(C2(C)NC(=O)N(CCc3ccc(F)cc3)C2=O)cc1 (stereo not given)	label 0
CC1(c2ccc(OC(F)F)cc2)NC(=O)N(CC(=O)c2ccncc2)C1=O (stereo not given)	label 0
CC1(c2ccc(OC(F)F)cc2)NC(=O)N(CC(=O)c2ccccc2F)C1=O (stereo not given)	label 1
C[C@@]1(c2ccc(C#N)cc2)NC(=O)N(CC(=O)c2ccc(F)cc2F)C1=O	label 0
CC1(c2ccc(Cl)cc2)NC(=O)N(C(=O)c2ccc(F)cc2F)C1=O (stereo not given)	label 0

###

testDescription: physchem
assaySetup: buffer, pH 7.4, logD
Label scheme for chromatographic logD: lower than 5 is condition not met, 5 and above is condition met.

molecule	cat
CC1(c2ccc(C#N)cc2)NC(=O)N(CC(=O)c2nccs2)C1=O (stereo not given)	condition not met
CC1(c2ccc(Cl)cc2)NC(=O)N(CCc2ccc(F)cc2)C1=O (stereo not given)	condition met
COc1ccc(C2(C)NC(=O)N(CC(=O)c3ccc(F)cc3F)C2=O)cc1 (stereo not given)	condition not met
CC1(c2ccc(OC(F)F)cc2)NC(=O)N(CC(=O)c2cccs2)C1=O (stereo not given)	condition not met
CC1(c2ccc(C#N)nc2)NC(=O)N(CC(=O)c2ccc(F)cc2F)C1=O (stereo not given)	condition not met

###

testDescription: physchem
assaySetup: buffer, pH 7.4, logD
Label scheme for chromatographic logD: lower than 5 is no, 5 and above is yes.

compound	cat
CC1(c2ccc(C#N)cc2)NC(=O)N(CC(=O)C23CC4CC(CC(C4)C2)C3)C1=O (stereo unspecified)	yes
CC1(c2ccc(C#N)cn2)NC(=O)N(CC(=O)c2ccc(F)cc2F)C1=O (stereo unspecified)	no
CC1(c2ccc(Br)cc2F)NC(=O)N(CC(=O)c2ccc(F)cc2F)C1=O (stereo unspecified)	yes
CC1(c2ccc(OC(F)(F)F)cc2)NC(=O)N(CC(=O)c2ccc(F)cc2F)C1=O (stereo unspecified)	yes
Cc1cc(C(=O)CN2C(=O)NC(C)(c3ccc(OC(F)F)cc3)C2=O)c(C)[nH]1 (stereo unspecified)	no
CC1(c2ccc(C#N)s2)NC(=O)N(CC(=O)c2ccc(F)cc2F)C1=O (stereo unspecified)	no
COc1ccc(C2(C)NC(=O)N(CC(=O)c3ccc(F)cc3F)C2=O)cc1F (stereo unspecified)	no
CC1(c2ccc(C#N)cc2)NC(=O)N(CCc2ccc(F)cc2)C1=O (stereo unspecified)	no
CC1(c2ccc(Br)cc2)CCN(CC(=O)c2ccc(F)cc2F)C1=O (stereo unspecified)	yes
COc1ccc(C2(C)NC(=O)N(CC(=O)c3ccc(F)cc3)C2=O)cc1 (stereo unspecified)	no
CC1(c2ccc(C#N)cc2)NC(=O)N(CC(=O)c2ccc(F)cc2)C1=O (stereo unspecified)	no
CC1(c2ccc(S(C)(=O)=O)cc2)NC(=O)N(CC(=O)c2ccc(F)cc2F)C1=O (stereo unspecified)	no
CC1(c2ccc(C#N)cc2)NC(=O)N(C2Cc3cc(F)cc(F)c3C2=O)C1=O (stereo unspecified)	no
N#Cc1ccc(-c2cnn(CC(=O)c3ccc(F)cc3F)c2)cc1	yes
C[C@]1(c2ccc(C#N)cc2)NC(=O)N(CC(=O)c2ccc(F)cc2F)C1=O	no
CC1(c2cccc(C#N)c2)NC(=O)N(CC(=O)c2ccc(F)cc2F)C1=O (stereo unspecified)	no
CC1(c2ccc(OC(F)F)cc2)NC(=O)N(CC(=O)c2ccc(F)cc2F)C1=O (stereo unspecified)	yes
COc1ccc(-c2cn(CC(=O)c3ccc(F)cc3F)cn2)cc1	no
CC1(c2ccc(OC(F)F)cc2)NC(=O)N(CC(=O)c2cccnc2)C1=O (stereo unspecified)	no

###

testDescription: Intrinsic clearance in human liver microsomes at 0.5 uM after 30 mins in presence of NADPH by LC-MS/MS analysis
Assay type: ADME, Microsome
assaySetup: 0.5 h

compound	rel	CLH (mL/min/g)
CC1(c2ccc(OC(F)F)cc2)NC(=O)N(CC(=O)c2ccc(F)cc2F)C1=O (configuration not stated)	<	0.4
CC1(c2ccc(C#N)cc2)NC(=O)N(CC(=O)c2ccc(F)cc2F)C1=O (configuration not stated)	=	0.49
CC1(c2ccc(S(C)(=O)=O)cc2)NC(=O)N(CC(=O)c2ccc(F)cc2F)C1=O (configuration not stated)	=	0.46
CC1(c2ccc(Br)cc2)NC(=O)N(CC(=O)c2ccc(F)cc2F)C1=O (configuration not stated)	<	0.4
CC1(c2ccc(NS(C)(=O)=O)cc2)NC(=O)N(CC(=O)c2ccc(F)cc2F)C1=O (configuration not stated)	=	0.47
CC1(c2ccc(-n3cnnn3)cc2)NC(=O)N(CC(=O)c2ccc(F)cc2F)C1=O (configuration not stated)	<	0.4
CC1(c2ccc(N3CCOC3=O)cc2)NC(=O)N(CC(=O)c2ccc(F)cc2F)C1=O (configuration not stated)	<	0.4

###

testDescription: physchem
assaySetup: buffer, pH 7.4, logD
Label scheme for chromatographic logD: lower than 5 is not met, 5 and above is met.

compound	cat
CC1(c2ccc(Br)cc2)CC(=O)N(CC(=O)c2ccc(F)cc2F)C1=O (stereo not given)	met
CC1(c2ccc(OC(F)F)cc2)NC(=O)N(CC(=O)c2ccccn2)C1=O (stereo not given)	not met
CC1(c2cccc(Br)c2)NC(=O)N(CC(=O)c2ccc(F)cc2F)C1=O (stereo not given)	met
COc1ccc(C2(C)NC(=O)N(C(=O)c3ccc(F)cc3F)C2=O)cc1 (stereo not given)	not met
COc1ccc(C2(C)NC(=O)N(CC(O)c3ccc(F)cc3F)C2=O)cc1 (stereo not given)	not met
CC1(c2ccc(OC(F)F)cc2)NC(=O)N(CC(=O)N2CCCCC2)C1=O (stereo not given)	not met
N#Cc1ccc(-c2cn(CC(=O)c3ccc(F)cc3F)cn2)cc1	not met
CC(=O)Nc1ccc(C2(C)NC(=O)N(CC(=O)c3ccc(F)cc3F)C2=O)cc1 (stereo not given)	not met
CC1(c2ccncc2)NC(=O)N(CC(=O)c2ccc(F)cc2F)C1=O (stereo not given)	not met
CC1(c2ccc(Br)nc2)NC(=O)N(CC(=O)c2ccc(F)cc2F)C1=O (stereo not given)	not met
CC1(c2ccc(C(F)(F)F)cc2)NC(=O)N(CC(=O)c2ccc(F)cc2F)C1=O (stereo not given)	met
CCC1(c2ccc(Br)cc2)NC(=O)N(CC(=O)c2ccc(F)cc2F)C1=O (stereo not given)	met
CC1(c2ccc(NS(C)(=O)=O)cc2)NC(=O)N(CC(=O)c2ccc(F)cc2F)C1=O (stereo not given)	not met
CC1(c2ccc(C#N)cc2)NC(=O)N(CCC(=O)c2ccc(F)cc2)C1=O (stereo not given)	not met
CC(=O)N1C(=O)N(CC(=O)c2ccc(F)cc2F)C(=O)C1(C)c1ccc(C#N)cc1 (stereo not given)	met
COc1ccc(C(=O)CN2C(=O)NC(C)(c3ccc(C#N)cc3)C2=O)cc1 (stereo not given)	not met
CC1(c2ccc(C#N)cc2)NC(=O)N(CC(=O)c2ncc(F)cc2F)C1=O (stereo not given)	not met
COc1cc(C2(C)NC(=O)N(CC(=O)c3ccc(F)cc3F)C2=O)cc(OC)c1OC (stereo not given)	not met
CC1(c2ccc(C#N)cc2)NC(=O)N(CC(=NO)c2ccc(F)cc2F)C1=O (stereo in doubt; 43b)	not met
CC1(c2ccc(OC(F)F)cc2)NC(=O)N(CC(=O)c2nccs2)C1=O (stereo not given)	not met
CN1C(=O)N(CC(=O)c2ccc(F)cc2F)C(=O)C1(C)c1ccc(C#N)cc1 (stereo not given)	met
Cc1ccc(C)c(C(=O)CN2C(=O)NC(C)(c3ccc(OC(F)F)cc3)C2=O)c1 (stereo not given)	met
COc1cccc(C(=O)CN2C(=O)NC(C)(c3ccc(C#N)cc3)C2=O)c1 (stereo not given)	not met
CC1(c2ccc(OC(F)F)cc2)NC(=O)N(CC(=O)c2ccc[nH]2)C1=O (stereo not given)	not met
CC1(c2ccc(C#N)cc2)NC(=O)N(CC(=O)c2cccc(C(F)(F)F)c2)C1=O (stereo not given)	met
O=C(CN1C(=O)NC(c2ccc(Br)cc2)(C(F)(F)F)C1=O)c1ccc(F)cc1F (stereo not given)	met
COc1ccc(C2(C)NC(=O)N(Cc3ccc(F)cc3)C2=O)cc1 (stereo not given)	not met
COc1ccc(C2(C)NC(=O)N(CCC(=O)c3ccc(F)cc3)C2=O)cc1 (stereo not given)	not met
CC1(c2ccc(Cl)cc2)NC(=O)N(CC(=O)c2ccc(F)cc2)C1=O (stereo not given)	met
O=C(CN1C(=O)NC2(CCc3cc(Br)ccc32)C1=O)c1ccc(F)cc1F (stereo not given)	met
CC1(c2ccc(-n3ccnc3)cc2)NC(=O)N(CC(=O)c2ccc(F)cc2F)C1=O (stereo not given)	not met
CC1(c2ccc(OC(F)F)cc2)NC(=O)N(CC(=O)N2CCCC2)C1=O (stereo not given)	not met
CC1(c2ccc(N3CCOCC3)cc2)NC(=O)N(CC(=O)c2ccc(F)cc2F)C1=O (stereo not given)	not met
CC1(c2ccc(Cl)cc2)NC(=O)N(Cc2ccc(F)cc2)C1=O (stereo not given)	met
